measured target: Sava lectin (Savalithsin) from Savalia (Gerardia) savaglia, isoforms SEQ ID NOs: 1, 2, 3 and 4
procedure summary: Microscale thermophoresis (MST) of carbohydrate binding to Sava lectin
run parameters: second of two binding events, read-out: Dissociation constant (Kd), second binding event

compound: OC[C@H]1OC(O)[C@@H](O)[C@@H](O)[C@@H]1O (stereo partly shown)
Kd, mM: 11.2

====

measured target: Sava lectin (Savalithsin) from Savalia (Gerardia) savaglia, isoforms SEQ ID NOs: 1, 2, 3 and 4
procedure summary: Microscale thermophoresis (MST) of carbohydrate binding to Sava lectin
run parameters: first of two binding events, read-out: Dissociation constant (Kd), first binding event

molecule: OC[C@H]1OC(O)[C@@H](O)[C@@H](O)[C@@H]1O (stereo partly shown)
Kd, µM: 26.5

====

measured target: Sava lectin (Savalithsin) from Savalia (Gerardia) savaglia, isoforms SEQ ID NOs: 1, 2, 3 and 4
procedure summary: Microscale thermophoresis (MST) of carbohydrate binding to Sava lectin
run parameters: read-out: Dissociation constant (Kd)
From the text: Microscale thermophoresis (MST) experiments confirmed binding of mannose and methyl mannoside. […] Two Km values indicate existence of two binding sites that could be different of allosterically connected.
pKd: −log10 of the molar value.

compound: CO[C@H]1O[C@H](CO)[C@@H](O)[C@H](O)[C@@H]1O [methyl alpha-D-mannoside]
pKd: 1.88
